Hello, the source for this data is PubChem BioAssay AID1159580, in case you need it.

Experiment Description: chemical genetic growth profiling, strain panel (AID 1159580);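 note: tested at 20 µM; growth read once vehicle control cultures reached saturation at 30 °C; 1 = growth at the plate median or of vehicle wells; lower values mean less growth of the strain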
Recorded Conditions: S. cerevisiae deletion strains, growth OD, locus YNR052C, strain pop2
The whole screen tested about 5,500 compounds, of which about 2,000 (36%) were called active. About 18% were inconclusive and are not listed. Cut-off read from the data, not from the text of the source: active = normalized growth mostly below about 0.91 (no sharp cut-off); inconclusive = no clear call, values can overlap the other calls; inactive = mostly above about 0.92. Some of the results follow.
Permitted responses: 1 = active, -1 = inactive

Would you please look over these solved cases?
{"columns": ["Compound", "Category Label"],
 "data": [
  ["CCCCC[C@H]1C(=O)O[C@H](C)[C@H](NC(=O)c2cccc(NC=O)c2O)C(=O)O[C@@H](C)[C@@H]1OC(=O)CC(C)C", 1],
  ["CC[C@@]1(O)C[C@H](O)c2c(cc3c(c2O)C(=O)c2c(O)ccc(O)c2C3=O)[C@H]1C(=O)OC", 1],
  ["C/C=C(\\C)C(=O)O[C@H]1C[C@@H](OC(C)=O)[C@@]2(C(=O)OC)CO[C@@H]3C2[C@]12CO[C@](O)(C(=O)OC)[C@H]2[C@](C)(C12O[C@@]1(C)[C@H]1C[C@@H]2OC2OC=C[C@@]21O)[C@@H]3O (stereo not given in full)", -1]
]}

In this assay, the call recorded for CCC1(O)CC(OC2CC(N(C)C)C(OC3CC(O)C(OC4CCC(=O)C(C)O4)C(C)O3)C(C)O2)c2c(cc3c(c2O)C(=O)c2c(O)cccc2C3=O)C1C(=O)OC (stereo not given) was what?
-1

Test call, this compound: CC[C@H]1OC(=O)[C@H](C)[C@@H](O[C@H]2C[C@@](C)(OC)[C@@H](O)[C@H](C)O2)[C@H](C)[C@@H](O[C@@H]2O[C@H](C)C[C@H](N(C)C)[C@H]2O)[C@](C)(OC)C[C@@H](C)C(=O)[C@H](C)[C@@H](O)[C@]1(C)O
-1

---

# normalized growth values compiled below
Experiment Description: chemical genetic growth profiling, strain panel (AID 1159580);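 note: tested at 20 µM; growth read once vehicle control cultures reached saturation at 30 °C; 1 = growth at the plate median or of vehicle wells; lower values mean less growth of the strain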
Recorded Conditions: S. cerevisiae deletion strains, growth OD, locus YCL029C, strain bik1, hits give low values
About 2,000 (36%) of roughly 5,500 compounds were called active. Inconclusive results (about 18%) are left out. This is one part of the list.
Answer with a bare number; do not write a unit.

Reference set, count: 4
{"columns": ["Compound", "normalized growth"],
 "data": [
  ["COc1ccc(C(CN(C)C)C2(O)CCCCC2)cc1 (centres undefined)", 0.979],
  ["CCCCCCCCC(=O)NCc1ccc(O)c(OC)c1", 0.989],
  ["O=C(O)CCCc1ccc(N(CCCl)CCCl)cc1", 0.989],
  ["CNC(=O)O/N=C(\\C)SC", 0.983]
]}

Param item = CCN(CC)C(=O)N1CCN(C)CC1 ; retrieve measured normalized growth.
0.999

Dear colleague, I am looking for the recorded normalized growth of the following compound: CC1(C)S[C@@H]2[C@H](NC(=O)[C@H](N)c3ccccc3)C(=O)N2[C@H]1C(=O)O
0.998

// lookup normalized growth for NCCC(O)C(=O)NC1CC(N)C(OC2OC(CN)C(O)C(O)C2N)C(OC2OC(CO)C(O)C2O)C1O (centres undefined)
0.994

For the compound shown here, CC(=O)Oc1cc(OC(C)=O)c2c(c1)O[C@H](c1ccc(OC(C)=O)c(OC(C)=O)c1)[C@@H](OC(C)=O)C2 , give the reported normalized growth.
0.965
